Reference source for all entries: the NIST ThermoML archive (doi:10.1016/j.jct.2009.11.014)

settings: 323.15 K; 8000 kPa; Liquid; vibrating tube
mass density for assorted compounds

compound: CCCCCCCC[n+]1ccn(C)c1.F[B-](F)(F)F [1-methyl-3-octylimidazolium tetrafluoroborate]
unit text: kg/m3
mass density: 1091.76

compound: CCn1cc[n+](C)c1.F[B-](F)(F)F [1-ethyl-3-methylimidazolium tetrafluoroborate]
unit text: kg/m3
mass density: 1270.37

compound: CCCCn1cc[n+](C)c1.F[B-](F)(F)F [1-butyl-3-methylimidazolium tetrafluoroborate]
unit text: kg/m3
mass density: 1187.91

compound: CCCCCCn1cc[n+](C)c1.F[B-](F)(F)F [1-hexyl-3-methylimidazolium tetrafluoroborate]
unit text: kg/m3
mass density: 1132.43

* * *

conditions: 318.15 K; 10000 kPa; Liquid; vibrating tube
Numbers after ± are expanded uncertainties.

compound: CCCCCCCC[n+]1ccn(C)c1.F[B-](F)(F)F [1-methyl-3-octylimidazolium tetrafluoroborate]
mass density: 1096.1 ± 0.93 kg/m3

compound: CCn1cc[n+](C)c1.F[B-](F)(F)F [1-ethyl-3-methylimidazolium tetrafluoroborate]
mass density: 1274.96 ± 1.6 kg/m3

compound: CCCCn1cc[n+](C)c1.F[B-](F)(F)F [1-butyl-3-methylimidazolium tetrafluoroborate]
mass density: 1192.31 ± 0.97 kg/m3

compound: CCCCCCn1cc[n+](C)c1.F[B-](F)(F)F [1-hexyl-3-methylimidazolium tetrafluoroborate]
mass density: 1136.79 ± 0.95 kg/m3

* * *

conditions: 313.15 K; 30000 kPa; Liquid; vibrating tube
observed property: mass density (kg/m3)

compound: CCCCCCn1cc[n+](C)c1.F[B-](F)(F)F [1-hexyl-3-methylimidazolium tetrafluoroborate]
reported result: 1149.62
--
compound: CCCCn1cc[n+](C)c1.F[B-](F)(F)F [1-butyl-3-methylimidazolium tetrafluoroborate]
reported result: 1204.81
--
compound: CCCCCCCC[n+]1ccn(C)c1.F[B-](F)(F)F [1-methyl-3-octylimidazolium tetrafluoroborate]
reported result: 1109.19
--
compound: CCn1cc[n+](C)c1.F[B-](F)(F)F [1-ethyl-3-methylimidazolium tetrafluoroborate]
reported result: 1287.29

* * *

conditions: 323.15 K; 40000 kPa; Liquid; vibrating tube

molecule: CCCCCCn1cc[n+](C)c1.F[B-](F)(F)F [1-hexyl-3-methylimidazolium tetrafluoroborate]
unit text: kg/m3
mass density: 1147.2

molecule: CCCCn1cc[n+](C)c1.F[B-](F)(F)F [1-butyl-3-methylimidazolium tetrafluoroborate]
unit text: kg/m3
mass density: 1202.55

molecule: CCCCCCCC[n+]1ccn(C)c1.F[B-](F)(F)F [1-methyl-3-octylimidazolium tetrafluoroborate]
unit text: kg/m3
mass density: 1107.6

molecule: CCn1cc[n+](C)c1.F[B-](F)(F)F [1-ethyl-3-methylimidazolium tetrafluoroborate]
unit text: kg/m3
mass density: 1284.32

* * *

mass density: recorded values
conditions: 318.15 K; 100 kPa; Liquid; vibrating tube
Numbers after ± are expanded uncertainties.
observed property: mass density

compound: CCCCCCCC[n+]1ccn(C)c1.F[B-](F)(F)F [1-methyl-3-octylimidazolium tetrafluoroborate]
reported result: 1090.78 ± 0.94 kg/m3

compound: CCn1cc[n+](C)c1.F[B-](F)(F)F [1-ethyl-3-methylimidazolium tetrafluoroborate]
reported result: 1270.39 ± 1.6 kg/m3

compound: CCCCCCn1cc[n+](C)c1.F[B-](F)(F)F [1-hexyl-3-methylimidazolium tetrafluoroborate]
reported result: 1131.72 ± 0.95 kg/m3

compound: CCCCn1cc[n+](C)c1.F[B-](F)(F)F [1-butyl-3-methylimidazolium tetrafluoroborate]
reported result: 1187.48 ± 0.97 kg/m3

* * *

conditions: 283.15 K; 50000 kPa; Liquid; vibrating tube

compound: CCCCCCn1cc[n+](C)c1.F[B-](F)(F)F [1-hexyl-3-methylimidazolium tetrafluoroborate]
unit text: kg/m3
mass density: 1177.7
//
compound: CCCCCCCC[n+]1ccn(C)c1.F[B-](F)(F)F [1-methyl-3-octylimidazolium tetrafluoroborate]
unit text: kg/m3
mass density: 1136.9
//
compound: CCn1cc[n+](C)c1.F[B-](F)(F)F [1-ethyl-3-methylimidazolium tetrafluoroborate]
unit text: kg/m3
mass density: 1317.06
//
compound: CCCCn1cc[n+](C)c1.F[B-](F)(F)F [1-butyl-3-methylimidazolium tetrafluoroborate]
unit text: kg/m3
mass density: 1233.46

* * *

conditions: 313.15 K; 50000 kPa; Liquid; vibrating tube
# key: entry, value: mass density

compound: CCn1cc[n+](C)c1.F[B-](F)(F)F [1-ethyl-3-methylimidazolium tetrafluoroborate]
mass density (kg/m3): 1295.43

compound: CCCCCCCC[n+]1ccn(C)c1.F[B-](F)(F)F [1-methyl-3-octylimidazolium tetrafluoroborate]
mass density (kg/m3): 1118.25

compound: CCCCCCn1cc[n+](C)c1.F[B-](F)(F)F [1-hexyl-3-methylimidazolium tetrafluoroborate]
mass density (kg/m3): 1158.44

compound: CCCCn1cc[n+](C)c1.F[B-](F)(F)F [1-butyl-3-methylimidazolium tetrafluoroborate]
mass density (kg/m3): 1213.28

* * *

conditions: 283.15 K; 60000 kPa; Liquid; vibrating tube
observed property: mass density (kg/m3)

compound: CCCCCCn1cc[n+](C)c1.F[B-](F)(F)F [1-hexyl-3-methylimidazolium tetrafluoroborate]
observed property: mass density
reported result: 1181.65
//
compound: CCn1cc[n+](C)c1.F[B-](F)(F)F [1-ethyl-3-methylimidazolium tetrafluoroborate]
observed property: mass density
reported result: 1320.84
//
compound: CCCCCCCC[n+]1ccn(C)c1.F[B-](F)(F)F [1-methyl-3-octylimidazolium tetrafluoroborate]
observed property: mass density
reported result: 1140.94
//
compound: CCCCn1cc[n+](C)c1.F[B-](F)(F)F [1-butyl-3-methylimidazolium tetrafluoroborate]
observed property: mass density
reported result: 1237.32

* * *

// reported mass density per item
settings: 298.15 K; 2000 kPa; Liquid; vibrating tube

molecule: CCCCn1cc[n+](C)c1.F[B-](F)(F)F [1-butyl-3-methylimidazolium tetrafluoroborate]
unit text: kg/m3
mass density: 1202.53

molecule: CCCCCCn1cc[n+](C)c1.F[B-](F)(F)F [1-hexyl-3-methylimidazolium tetrafluoroborate]
unit text: kg/m3
mass density: 1146.39

molecule: CCCCCCCC[n+]1ccn(C)c1.F[B-](F)(F)F [1-methyl-3-octylimidazolium tetrafluoroborate]
unit text: kg/m3
mass density: 1105.26

molecule: CCn1cc[n+](C)c1.F[B-](F)(F)F [1-ethyl-3-methylimidazolium tetrafluoroborate]
unit text: kg/m3
mass density: 1286.33

* * *

details: 323.15 K; 20000 kPa; Liquid; vibrating tube

compound: CCCCCCCC[n+]1ccn(C)c1.F[B-](F)(F)F [1-methyl-3-octylimidazolium tetrafluoroborate]
unit text: kg/m3
mass density: 1097.97

compound: CCn1cc[n+](C)c1.F[B-](F)(F)F [1-ethyl-3-methylimidazolium tetrafluoroborate]
unit text: kg/m3
mass density: 1275.76

compound: CCCCn1cc[n+](C)c1.F[B-](F)(F)F [1-butyl-3-methylimidazolium tetrafluoroborate]
unit text: kg/m3
mass density: 1193.6

compound: CCCCCCn1cc[n+](C)c1.F[B-](F)(F)F [1-hexyl-3-methylimidazolium tetrafluoroborate]
unit text: kg/m3
mass density: 1138.4

* * *

Each entry below carries its reported mass density.
settings: 318.15 K; 6000 kPa; Liquid; vibrating tube
observed property: mass density (kg/m3)

molecule: CCn1cc[n+](C)c1.F[B-](F)(F)F [1-ethyl-3-methylimidazolium tetrafluoroborate]
observed property: mass density
unit text: kg/m3
reported result: 1273.14
--
molecule: CCCCCCCC[n+]1ccn(C)c1.F[B-](F)(F)F [1-methyl-3-octylimidazolium tetrafluoroborate]
observed property: mass density
unit text: kg/m3
reported result: 1094
--
molecule: CCCCCCn1cc[n+](C)c1.F[B-](F)(F)F [1-hexyl-3-methylimidazolium tetrafluoroborate]
observed property: mass density
unit text: kg/m3
reported result: 1134.77
--
molecule: CCCCn1cc[n+](C)c1.F[B-](F)(F)F [1-butyl-3-methylimidazolium tetrafluoroborate]
observed property: mass density
unit text: kg/m3
reported result: 1190.39

* * *

settings: 298.15 K; 20000 kPa; Liquid; vibrating tube
// reported mass density for each item listed

molecule: CCCCCCCC[n+]1ccn(C)c1.F[B-](F)(F)F [1-methyl-3-octylimidazolium tetrafluoroborate]
unit text: kg/m3
mass density: 1114.12
//
molecule: CCCCCCn1cc[n+](C)c1.F[B-](F)(F)F [1-hexyl-3-methylimidazolium tetrafluoroborate]
unit text: kg/m3
mass density: 1154.94
//
molecule: CCn1cc[n+](C)c1.F[B-](F)(F)F [1-ethyl-3-methylimidazolium tetrafluoroborate]
unit text: kg/m3
mass density: 1294.05
//
molecule: CCCCn1cc[n+](C)c1.F[B-](F)(F)F [1-butyl-3-methylimidazolium tetrafluoroborate]
unit text: kg/m3
mass density: 1210.64

* * *

conditions: 313.15 K; 40000 kPa; Liquid; vibrating tube

molecule: CCn1cc[n+](C)c1.F[B-](F)(F)F [1-ethyl-3-methylimidazolium tetrafluoroborate]
mass density (kg/m3): 1291.42
--
molecule: CCCCCCn1cc[n+](C)c1.F[B-](F)(F)F [1-hexyl-3-methylimidazolium tetrafluoroborate]
mass density (kg/m3): 1154.1
--
molecule: CCCCCCCC[n+]1ccn(C)c1.F[B-](F)(F)F [1-methyl-3-octylimidazolium tetrafluoroborate]
mass density (kg/m3): 1113.81
--
molecule: CCCCn1cc[n+](C)c1.F[B-](F)(F)F [1-butyl-3-methylimidazolium tetrafluoroborate]
mass density (kg/m3): 1209.11
